Known MFI at 0.0128 nM of a selection of binders
molecular target: T1, monkey CTLA-4, full length, on transfected HEK293 cells (monkey); experiment: FACS, 293F-cCTLA-4 cells
T1 construct: whole, on cells; also called cCTLA-4; HEK293-cCTLA-4

| BINDER | MFI at 0.0128 nM |
| --- | --- |
| 40C4C6 (chimeric antibody purified from hybridoma supernatant) (antibody, V domains shown, also called mAb09; mAb009) VH: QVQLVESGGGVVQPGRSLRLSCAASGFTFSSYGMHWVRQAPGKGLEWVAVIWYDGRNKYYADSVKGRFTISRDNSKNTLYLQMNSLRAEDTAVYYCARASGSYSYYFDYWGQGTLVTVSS VL: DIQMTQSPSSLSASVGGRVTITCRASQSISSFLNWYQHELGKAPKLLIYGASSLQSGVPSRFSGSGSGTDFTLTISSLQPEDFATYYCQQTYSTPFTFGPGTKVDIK | 23 |
| 92C8B6 (chimeric antibody purified from hybridoma supernatant) (antibody, V domains shown, also called mAb42; mAb042) VH: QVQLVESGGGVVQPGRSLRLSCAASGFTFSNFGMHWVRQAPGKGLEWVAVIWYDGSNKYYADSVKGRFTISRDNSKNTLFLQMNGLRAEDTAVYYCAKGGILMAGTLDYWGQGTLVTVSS VL: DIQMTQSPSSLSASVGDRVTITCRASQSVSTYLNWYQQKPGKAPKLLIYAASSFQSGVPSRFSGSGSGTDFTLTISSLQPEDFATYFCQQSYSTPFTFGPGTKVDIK | 22.2 |
| 31C12F3 (chimeric antibody purified from hybridoma supernatant) (antibody, V domains shown, also called mAb010) VH: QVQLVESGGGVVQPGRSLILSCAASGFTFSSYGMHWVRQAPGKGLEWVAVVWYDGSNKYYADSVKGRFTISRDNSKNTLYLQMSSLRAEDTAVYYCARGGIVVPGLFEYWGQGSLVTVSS VL: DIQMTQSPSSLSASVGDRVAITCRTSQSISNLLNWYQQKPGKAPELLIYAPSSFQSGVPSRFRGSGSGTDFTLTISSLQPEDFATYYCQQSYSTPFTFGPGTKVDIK | 34.3 |
| 97A8D1 (chimeric antibody purified from hybridoma supernatant) (antibody, V domains shown, also called mAb49; mAb049) VH: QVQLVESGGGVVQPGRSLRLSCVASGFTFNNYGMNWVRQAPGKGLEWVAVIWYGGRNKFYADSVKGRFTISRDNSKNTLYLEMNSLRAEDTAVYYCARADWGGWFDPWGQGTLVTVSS VL: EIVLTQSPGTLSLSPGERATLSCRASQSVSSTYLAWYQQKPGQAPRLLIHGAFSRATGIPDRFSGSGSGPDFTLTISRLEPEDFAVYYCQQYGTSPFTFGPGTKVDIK | 23.1 |
